- system tested: Shab K+ channel (dShab 11) (Drosophila melanogaster)
- Construct: Shab cDNA (dShab 11) by recombinant baculovirus in Sf9 insect cells; homotetramer
- Sequence (P17970 with tags, fused parts or gaps): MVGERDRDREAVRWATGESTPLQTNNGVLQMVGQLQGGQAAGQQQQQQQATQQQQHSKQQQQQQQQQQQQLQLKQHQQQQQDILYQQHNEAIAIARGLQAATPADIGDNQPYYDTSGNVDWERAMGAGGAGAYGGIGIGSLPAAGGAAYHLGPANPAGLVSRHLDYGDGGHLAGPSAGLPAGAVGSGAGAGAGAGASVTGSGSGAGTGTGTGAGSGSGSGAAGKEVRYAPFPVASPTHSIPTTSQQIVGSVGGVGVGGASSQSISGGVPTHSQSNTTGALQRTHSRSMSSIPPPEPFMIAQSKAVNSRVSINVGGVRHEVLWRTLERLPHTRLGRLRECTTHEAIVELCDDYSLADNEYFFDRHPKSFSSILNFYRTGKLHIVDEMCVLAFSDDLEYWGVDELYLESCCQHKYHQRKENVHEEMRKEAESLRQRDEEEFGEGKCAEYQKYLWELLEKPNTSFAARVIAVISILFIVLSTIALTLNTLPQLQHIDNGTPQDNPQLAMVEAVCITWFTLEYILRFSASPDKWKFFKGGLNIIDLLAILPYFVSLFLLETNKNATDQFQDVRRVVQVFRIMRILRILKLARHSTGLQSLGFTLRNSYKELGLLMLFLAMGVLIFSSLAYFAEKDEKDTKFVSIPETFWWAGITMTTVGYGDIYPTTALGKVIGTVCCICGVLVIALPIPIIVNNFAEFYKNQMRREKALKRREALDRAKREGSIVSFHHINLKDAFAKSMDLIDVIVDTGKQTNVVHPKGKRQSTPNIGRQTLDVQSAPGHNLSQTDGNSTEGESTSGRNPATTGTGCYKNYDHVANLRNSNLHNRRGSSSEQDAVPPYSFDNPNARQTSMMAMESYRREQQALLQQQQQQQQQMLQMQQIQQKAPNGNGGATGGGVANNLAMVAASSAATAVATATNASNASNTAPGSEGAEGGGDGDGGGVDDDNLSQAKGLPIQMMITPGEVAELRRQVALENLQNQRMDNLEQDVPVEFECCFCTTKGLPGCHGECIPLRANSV
- protocol summary: whole-cell patch clamp, block of K+ current, Michaelis-Menten fit
reported property: Kd (mM)
Give the quantity in mM, number only.

query: Look up Kd for this molecule: CC[N+](CC)(CC)CC
result: 10.8
